Test: Mouse blood and tissue PK (LC/MS-MS)
Type: in vivo
Details: BALB/c nude, mouse, whole blood, po, 25 mg/kg, Capan-2 (25 mg/kg), single dose
metric_name: Cmax
A complete answer gives the number and then names the unit.

Task item: Please give the documented Cmax of `CCn1c(-c2cc(N3CCN(C)CC3)cnc2[C@H](C)OC)c2c3cc(ccc31)-c1csc(n1)C[C@H](NC(=O)[C@H]1C[C@@H]1C)C(=O)N1CCC[C@H](N1)C(=O)OCC(C)(C)C2`
Reply: 2920 ng/mL

* * *

Test: Mouse blood and tissue PK (LC/MS-MS)
Assay type: in vivo
Conditions: mouse, tumor, oral, 50 mg/kg, NCI-H441 xenograft tumor, study NCI-H441#6, 50 mg/kg, 8h; read-out: RMC-6236 (nM) Tumor
Experimental: For single-dose PKPD study, mice were randomized and assigned into groups (n = 3/dose/time point). […] Blood and tissues, including the tumor, brain, colon, ear skin, and muscle, were harvested at indicated time points. […] The whole blood, tumor, brain, colon, and ear skin concentrations of RMC-6236 were determined using liquid chromatography–tandem mass spectrometry (LC/MS-MS) methods. […] Concentrations reported as below the quantification limit were treated as zero for PK analysis. […]
metric_name: concentration at 8 h (nM)
Hi! Could you send only the number? It should be in nM, unit omitted.

Task item: Please give the documented concentration at 8 h of CCn1c(-c2cc(N3CCN(C)CC3)cnc2[C@H](C)OC)c2c3cc(ccc31)-c1csc(n1)C[C@H](NC(=O)[C@H]1C[C@@H]1C)C(=O)N1CCC[C@H](N1)C(=O)OCC(C)(C)C2 [RMC-6236]
Reply: 4770
